Cited source for all entries: ChEMBL document CHEMBL5614374

Molecular target: Alpha-amylase (Sus scrofa domesticus, UniProt Q7M328)
Sequence (Q7M328 whole entry): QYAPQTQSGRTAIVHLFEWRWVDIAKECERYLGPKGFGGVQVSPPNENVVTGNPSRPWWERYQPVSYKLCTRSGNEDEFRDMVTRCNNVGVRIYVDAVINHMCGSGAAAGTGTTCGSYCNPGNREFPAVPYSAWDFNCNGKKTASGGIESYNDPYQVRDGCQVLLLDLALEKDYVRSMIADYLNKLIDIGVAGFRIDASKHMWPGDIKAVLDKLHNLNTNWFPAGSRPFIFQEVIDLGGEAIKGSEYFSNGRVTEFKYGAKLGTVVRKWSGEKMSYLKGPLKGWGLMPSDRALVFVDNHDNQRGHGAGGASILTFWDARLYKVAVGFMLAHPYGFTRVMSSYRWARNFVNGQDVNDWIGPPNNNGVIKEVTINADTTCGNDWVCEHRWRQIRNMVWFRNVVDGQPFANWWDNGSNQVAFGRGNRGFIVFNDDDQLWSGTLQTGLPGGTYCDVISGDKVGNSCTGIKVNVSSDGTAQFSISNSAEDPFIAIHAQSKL
Test: Inhibition of hog pancreatic alpha-amylase using soluble starch as substrate assessed as inhibition constant of free alpha-amylase preincubated for 10 mins followed by substrate addition and measured after 15 mins by Lineweaver-Burk plot analysis

{"structure": "O=C(CSc1nnc(CCn2c3ccccc3c3ccccc32)o1)Nc1ccc(F)cc1", "units-of-measure": "µM", "Ki": 45.1}

---

Experiment: Cytotoxicity against HEK293 cells incubated for 1 day by MTT assay
Assay type: toxicity, cell-based
Settings: human
Items are presented alongside their recorded IC50 at 1 day.
measure: IC50 at 1 day (µM)

{"structure": "O=C(CSc1nnc(CCn2c3ccccc3c3ccccc32)o1)Nc1ccc(F)cc1", "measure": "IC50 at 1 day", "quantitative-result": 181}
{"structure": "CCOc1ccc(NC(=O)CSc2nnc(CCn3c4ccccc4c4ccccc43)o2)cc1", "measure": "IC50 at 1 day", "quantitative-result": 193}
